# z-score listing for each entry below
Test: Plasmodium falciparum growth inhibition, primary screen, strain 3D7, DAPI fluorescence, 100 nL (AID 1184);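 note: parasites grown inside human red blood cells in medium with human serum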
Settings: P. falciparum 3D7 growth, 3 d, higher = more signal

| molecule | z-score |
| --- | --- |
| C[C@@H]1C=CCC(=O)OC[C@H](C)C(=O)OC[C@H]2O[C@H]1C=C[C@H]2O | -0.315 |
| C[N+](C)(C)CCCCCCNC(=O)[C@@H]1C[C@@H]2C(=O)N3CCC[C@H]3C(=O)N2[C@@H]1c1cccc(OCCO)c1 | -0.204 |
| CN(C)CCCNC(=O)[C@@H]1c2ccccc2C(=O)N(Cc2ccccc2)[C@H]1c1ccc(CO)cc1 | 0.0535 |
| COc1ccc(O[C@H]2C=C[C@@H](c3ccccc3)O[C@@H]2COC(=O)CCC(C)=NO[C@@H](C)c2cc(-c3c(C)cc(C)cc3C)no2)cc1 | -0.739 |
| CC(C)=NOCc1cccc(-c2cc(-c3ccccc3)no2)c1 | 2.06 |
| COCCCNC(=O)[C@]1(Cc2ccccc2)N=C(c2ccc(OCCCO)cc2)O[C@@H]1c1ccccc1 | -2.17 |
| CN1C(=O)C2C(C1=O)C1C=C(CCCO)C2C(c2ccc(CN3CCCC3)cc2)N1C (configuration not stated) | -1.27 |
| CCOC(=O)CCN1C(=O)[C@H]2[C@H]3[C@H](O)[C@H](O)CC(=NOC[C@@H](O)COCc4ccco4)[C@H]3CC[C@H]2C1=O | -1.44 |
| C[C@@H]1C=CCC(=O)OC[C@H](C)C(=O)N[C@@H](C)C(=O)OC1 | -0.207 |
| CCOC(=O)CCN1C(=O)[C@H]2[C@H]3[C@H](O)C=CC(=O)[C@@H]3CC[C@H]2C1=O | -0.0439 |
| CS(=O)(=O)CCOC(=O)C1=CC(CCCO)=CC(c2cccs2)N(Cc2cccc(OC(F)(F)F)c2)C=C1C(=O)OCCS(C)(=O)=O (configuration not stated) | -2.99 |
| C=C(COC)/C(=C/C[C@H](OC(=O)c1ccncc1)c1ccc(CO)o1)c1cc(C(=O)OC)ccc1OC | 0.215 |

----------
# z-score listing for each entry below
Experiment: mitochondrial membrane potential change in A549 cells, profiling panel, cell-based, JC-1 fluorescence, basal, 24 h, 100 nL (AID 1138);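 note: A549 lung adenocarcinoma cells under basal conditions with no added stimulus; test concentration not given here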
Conditions: higher = more signal

| compound | z-score |
| --- | --- |
| Cn1c(=O)n2n(c1=O)[C@H]1[C@H](O)[C@@H]3O[C@@H]3C(=NOC[C@@H](O)COCc3ccco3)[C@H]1CC2 | 0.596 |
| COC(=O)[C@H](C)NC(=O)CCC1CC(OC(=O)NCc2cccc3ccccc23)CC2(CCCC(COC(=O)NCC3CCCCC3)O2)O1 (stereo not given in full) | -0.25 |
| O=C1[C@H]2[C@H]3[C@H](O)[C@H](O)CC(=NOCc4ccccc4)[C@@H]3CC[C@H]2C(=O)N1C1CCCCC1 | -0.134 |
| O=C1C2C=CC(C(O)c3ccc([N+](=O)[O-])cc3)N(Nc3ccc([N+](=O)[O-])cc3)C2C(=O)N1c1ccccc1 (stereo not given) | -1.95 |
| COC(=O)[C@H](C)NC(=O)CCC1CC(OC(=O)NCc2cccc3ccccc23)CC2(CCCC(COC(=O)NCCc3ccc(Cl)cc3)O2)O1 (stereo not given in full) | 0.179 |
| CO[C@@H]1COC(=O)CC=C[C@@H](C)[C@@H]2C=C[C@H](O)[C@@H](COC(=O)[C@H](C)NC(=O)CC=C[C@H]1C)O2 | -1.23 |
| O=C(NN=C1C[C@@H](O)[C@@H](O)[C@@H]2[C@@H]3C(=O)N(c4cccc(Oc5ccccc5)c4)C(=O)[C@@H]3CC[C@@H]12)OCc1ccccc1 | -0.0675 |
| COCC(=C=CC[C@@H](O)c1ccccc1OCCO)CCO | 1.51 |
| CC(CCN1CCc2nc(-c3ccccc3)c(-c3ccccc3)cc2C1)=NOC(C)CN1CCCCc2nc(C)c(C)cc21 (stereo not given) | 1.52 |
| CCN1C(=O)[C@H]2[C@H]3[C@H](O)[C@H](O)CC(=NOC[C@@H](C)[C@H](OCc4ccccc4)C(C)C)[C@@H]3CC[C@H]2C1=O | -0.925 |

----------
Assay: splicing luciferase reporter signal modulators, primary screen, spliceosome inhibition project, cell-based, HEK293, splice +/- reporter (AID 1101);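 note: HEK293 cells carrying a splicing-competent luciferase reporter gene; test concentration not given here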
Details: luminescence, 24 h, higher = more signal, called active from +8 up or from −8 down
# z-score listing for each entry below

| molecule | z-score |
| --- | --- |
| COc1ccc(O[C@H]2C=C[C@@H](c3ccccc3)O[C@@H]2CON=C[C@@H](C)[C@H](OCc2ccccc2)C(C)C)cc1 | 0.275 |
| COc1cccc([C@@H]2Oc3ccc(Br)cc3C(=O)[C@H]2O)c1 | -1.7 |
| Cc1cc(C)c(-c2cc([C@H](C)ON=C3[C@H]4CCn5c(=O)n(-c6ccccc6)c(=O)n5[C@H]4[C@H](O)[C@@H]4O[C@H]34)on2)c(C)c1 | 2.01 |
| COc1ccc(-c2nc3c(c4c2C[C@H](C)OC4)CN(CCC(C)C)CC3)cc1 | 0.386 |
| CCOC(=O)[C@H](Cc1ccccc1)NC(=O)CCC1CC(OC(=O)NCc2ccc3c(c2)OCO3)CC2(CCCC(COC(=O)NCC3CCCCC3)O2)O1 (stereo not given in full) | -0.481 |

----------
Assay: small-molecule microarray binders of probe aWnt5a, primary screen, biochemical, biotinylated probe, 635/667 nm fluorescence (AID 1113);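 note: score merges 667 nm fluorescence intensity with signal-to-noise per printed feature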
Conditions: higher = more signal
Classification by composite z-score follows these ranges: interval 1: < -0.1; interval 2: ≥ -0.1 and < -0.01; interval 3: ≥ -0.01

| molecule | classification |
| --- | --- |
| CC(C)NC(=O)[C@@]1(c2ccc([N+](=O)[O-])cc2)CC(=O)N(CC23CC4CC(CC(C4)C2)C3)[C@@H]1c1ccc(CO)cc1I | interval 2 |
| CC[C@@H](c1ccccc1)n1c(=O)n2n(c1=O)[C@H]1[C@H](O)[C@@H]3O[C@@H]3C(=NOCC(C)C)[C@H]1CC2 | interval 1 |
| C[N+](C)(C)CCCCCCNC(=O)[C@@H]1C[C@@H]2C(=O)N3CCC[C@H]3C(=O)N2[C@@H]1c1cccc(OCCO)c1 | interval 1 |
| CO[C@@H]1COC(=O)CCC[C@@H](C)[C@H](OC)COC(=O)CCC[C@H]1C | interval 2 |
| COCCOC(=O)N1C(=O)[C@@]2(c3ccccc31)[C@H](C(N)=O)[C@H]1C(=O)O[C@H](c3ccccc3)[C@H](c3ccccc3)N1[C@@H]2c1ccccc1OCCO | interval 2 |
| C[C@H]1Cc2c(-c3ccccc3)nc3c(c2CO1)CN(CCOc1ccccc1)CC3 | interval 2 |
| C=CCNC(=O)[C@H]1[C@@H]2C(=O)O[C@@H](c3ccccc3)[C@@H](c3ccccc3)N2[C@@H](c2ccc(O)cc2)[C@]12C(=O)N(C(=O)OCCOC)c1ccc(C#CC3=CCCCC3)cc12 | interval 3 |
| CCOC(=O)NN=C1C[C@@H](O)[C@@H](O)[C@@H]2[C@@H]3C(=O)N(CC)C(=O)[C@@H]3CC[C@@H]12 | interval 1 |
| CC1CC/C=C\[C@H]2OC34C=CCN(C(C)C)C(=O)[C@H]3N(CCCO)C(=O)[C@@H]4C2C(=O)O1 (some centres undefined) | interval 1 |
| CC(CCC(=O)OC[C@H]1O[C@H](C#Cc2ccccc2)C=C[C@@H]1Oc1ccc(C)cc1)=NOC[C@@H](O)[C@H]1O[C@@H]2OC(C)(C)O[C@@H]2[C@H]1O | interval 1 |
| O=C(CS)NCCCCCNC(=O)[C@@H]1C[C@@H]2C(=O)N[C@@H](Cc3ccccc3)C(=O)N2[C@@H]1c1ccc(O)cc1 | interval 3 |
| CO[C@H]1COC(=O)[C@H](C)NC(=O)[C@@H](C)COC(=O)CC=C[C@@H]1C | interval 3 |
| CC(C)(C)N1C(=O)[C@H]2[C@H]3[C@H](O)[C@H](O)CC(=NO[C@@H]4O[C@H](CO)[C@@H](O)[C@H](O)[C@H]4O)[C@@H]3CC[C@H]2C1=O | interval 2 |
| CC(C)N1CC=CC23O[C@@H]4C=CCCOC(=O)C4[C@H]2C(=O)N(CCCCCCO)[C@@H]3C1=O (some centres undefined) | interval 1 |
| C=COC[C@H]1CN2[C@@H](CC[C@@H](C)[C@@H]2c2ccc(Br)cc2)C(=O)O1 | interval 1 |
| CCN1C(=O)[C@H]2[C@H]3[C@H](O)[C@H](O)CC(=NOCC=C(C)CCC=C(C)C)[C@H]3CC[C@H]2C1=O | interval 2 |
| COc1ccc(-c2nc3c(c4c2C[C@H](C)OC4)CN(CCC(C)C)CC3)cc1 | interval 2 |
| CC(C)NC(=O)[C@@H]1c2ccccc2C(=O)N(CC23CC4CC(CC(C4)C2)C3)[C@H]1c1ccc(CO)cc1 | interval 2 |
| C=CCC(OC(C)=O)[C@@H]1[C@@H](N(Cc2cc3ccccc3o2)C(=O)Cc2ccc(F)cc2)c2cc(OCCCO)ccc2N1C(=O)Cc1ccc(OC)cc1 (some centres undefined) | interval 1 |
| CC(C)=CCCC(C)=CCON=C1[C@H]2CCn3c(=O)n(Cc4cc5c(cc4Cl)OCO5)c(=O)n3[C@H]2[C@H](O)[C@@H]2O[C@H]12 | interval 3 |
| CCOC(=O)CCN1C(=O)[C@H]2[C@H]3[C@H](O)[C@H](O)CC(=NNC(=O)OCc4ccc(OC)cc4)[C@@H]3CC[C@H]2C1=O | interval 1 |
| COC(=O)[C@H](C)NC(=O)[C@@H](C)CO | interval 2 |
| CC(=O)OC[C@H]1O[C@@H](ON=C(C)CCN2CCc3nc(-c4ccccc4)c(-c4ccccc4)cc3C2)[C@H](OC(C)=O)[C@@H](OC(C)=O)[C@@H]1OC(C)=O | interval 3 |

Data origin, for the record: PubChem BioAssay
